Tested on: HCC 2998
test-protocol: NCI tumour cell line growth inhibition, 48 h
Activity calls are given as the source filed them. Rule as the data show it: active = GI50 up to about 1.1 µM and inactive = higher.
Entries and their GI50

In [3]: df
Out[3]:
                                   molecule      reported_result
0                  Nc1ncc(Cc2nc3ccccc3s2)s1  > 100 µM (inactive)
1  COc1ccc(/C=N/n2cnc3[nH]c(C)c(Cc4ccccc4)c3c2=N)cc1  > 100 µM (inactive)
2  CCOC(=O)/C=C(/C(=O)OCC)n1ccc(=O)[nH]c1=O   16.5 µM (inactive)
3  CCCCOC(=O)NC(Nc1ccc(S(N)(=O)=O)cc1)(C(F)(F)F)C(F)(F)F  > 100 µM (inactive)
4  OC1CCN2Cc3ccccc3N=C12 (stereo not given)  > 100 µM (inactive)
5  COc1cc(OC)c2c(c1)OC(c1ccccc1)CC2=O (stereo not given) [DIMETHYLPINOCEMBRIN]   > 10 µM (inactive)
6        COc1cc(/C=C/c2ccc(C)cc2)cc(OC)c1OC   4.82 µM (inactive)
7  O=C(/C=c1\oc(=O)/c(=C/C(=O)c2ccc(Cl)cc2)oc1=O)c1ccc(Cl)cc1  > 100 µM (inactive)

What measured GI50 is associated with COc1ccc(-c2c3c(n(C4OC(COC(C)=O)C(OC(C)=O)C(OC(C)=O)C4OC(C)=O)c(=S)c2C#N)CCCC3)cc1 (stereo not given) on HCC 2998?
> 100 µM (inactive)

Would you kindly repeat that for COc1ccc(C2=Nc3ccccc3NC(=O)C2)cc1 ?
> 100 µM (inactive)

Would you kindly repeat that for CCc1cccc(CC)c1NC(=O)CC1SC(N)=NC1=O (stereo not given) ?
> 100 µM (inactive)

Would you kindly repeat that for O=C(Nc1sccc1S(=O)(=O)c1ccc(Cl)cc1)c1ccc(Cl)cc1 ?
> 100 µM (inactive)

Would you kindly repeat that for CC(C)(C)C1=CC(C)(n2[nH]c(=O)n(-c3ccccc3)c2=O)C=C(C(C)(C)C)C1=O ?
> 100 µM (inactive)

Would you kindly repeat that for COC(=O)[C@]1(c2cc3ccccc3n2S(=O)(=O)c2ccccc2)CC2CCC1NC2 (stereo not given in full) ?
9.38 µM (inactive)

Would you kindly repeat that for OC1C2[C@@H](O)CCCN2C[C@@H](O)[C@H]1O (stereo not given in full) ?
> 100 µM (inactive)

Would you kindly repeat that for Cn1c(=O)c2c(nc(Cc3ccccc3)n2CC(=O)O)n(C)c1=O ?
> 100 µM (inactive)

Would you kindly repeat that for C=CC[N+](CCO)(CCO)CCCCCCCCCCCCCCCCCC ?
3.23 µM (inactive)

Would you kindly repeat that for C=C(CN(C)C)C1(c2ccccc2)CC2(CCCC2)C(=O)O1 (stereo not given) ?
> 100 µM (inactive)

Would you kindly repeat that for CCOC(=O)c1ccc(-c2cccs2)[nH]1 ?
> 100 µM (inactive)

Would you kindly repeat that for Nc1nc(Cl)cc(NCC2(CO)COC2)n1 ?
> 100 µM (inactive)

Would you kindly repeat that for COc1ccc(OC)c2c1C=C[C@H](C1(C)SCCS1)C2C(C)=O (stereo not given in full) ?
50.1 µM (inactive)

Would you kindly repeat that for COc1ccc2nc3cc([N+](=O)[O-])ccc3c(NNc3ccccc3)c2c1 ?
23.2 µM (inactive)

Where these numbers come from: ChEMBL document CHEMBL1201862
